Molecular target: human PAD4 (hPAD4) (Homo sapiens (Human), UniProt Q9UM07)
Sequence (Q9UM07 whole entry): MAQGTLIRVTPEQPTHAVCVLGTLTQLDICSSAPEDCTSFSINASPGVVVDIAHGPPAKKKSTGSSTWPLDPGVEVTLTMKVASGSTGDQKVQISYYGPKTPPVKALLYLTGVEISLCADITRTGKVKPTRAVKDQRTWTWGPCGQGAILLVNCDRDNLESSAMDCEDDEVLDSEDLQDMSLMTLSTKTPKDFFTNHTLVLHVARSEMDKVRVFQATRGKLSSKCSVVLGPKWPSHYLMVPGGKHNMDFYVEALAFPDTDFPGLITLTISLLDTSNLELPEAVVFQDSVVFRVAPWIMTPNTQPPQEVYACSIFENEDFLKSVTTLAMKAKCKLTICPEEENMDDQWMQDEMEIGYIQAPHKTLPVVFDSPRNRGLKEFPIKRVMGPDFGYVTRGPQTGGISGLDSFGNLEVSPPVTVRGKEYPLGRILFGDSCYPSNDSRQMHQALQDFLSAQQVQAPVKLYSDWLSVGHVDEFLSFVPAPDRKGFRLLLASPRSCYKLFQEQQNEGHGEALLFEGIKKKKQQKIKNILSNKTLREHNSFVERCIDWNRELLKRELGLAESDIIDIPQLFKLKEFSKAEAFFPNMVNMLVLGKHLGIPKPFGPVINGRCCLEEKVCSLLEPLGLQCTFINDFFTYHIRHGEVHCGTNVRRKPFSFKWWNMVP
Assay: RFMS Human PAD4 Functional Assay 1
Settings: RFMS assay 1; 5 nM hPAD4, 250 μM BAEE substrate, 50 μM calcium, 37° C.
recorded-metric: IC50 (nM)

compound | value-measured
Cc1ccc2cc(-c3nn4cc(C(=O)N5CC6CCC5[C@@H]6N)cc(F)c4c3C)n(CC3CC3)c2n1 (stereo partly shown) | 25
Cc1c(-c2cc3ccc(-c4ccc5c(c4)C(=O)NC5)nc3n2CC2CC2)oc2cc(C(=O)N3C[C@H](N)C[C@@H](F)C3)ccc12 | 830
CO[C@H](C)C(=O)N1CCC(c2cc(F)cc3cc(-c4nn5cc(C(=O)N6CCC[C@@H](N)C6)ccc5c4C)n(CC4CC4)c23)CC1 | 40
CO[C@H](C)C(=O)N1CCC(c2cccc3cc(-c4nn5cc(C(=O)N6C[C@H](N)C[C@@H](F)C6)ccc5c4C)n(CC4CC4)c23)CC1 | 80
COc1cc(C(=O)N2C[C@H](N)C[C@@H](F)C2)cn2nc(-c3cc4ccc(N5CCC(N(C)C(C)=O)CC5)cc4n3CC3CC3)c(C)c12 [Example 243] | 4120

A. CO[C@@H](C)C(=O)N1CC(c2cccc3cc(-c4nn5cc(C(=O)N6C[C@H](N)C[C@@H](F)C6)ccc5c4C)n(CC4CC4)c23)C1
B. COc1cc(C(=O)N2C[C@H](N)C[C@@H](F)C2)cn2nc(-c3cc4ccc(-c5ccc6c(c5)CNC6=O)nc4n3CC3CC3)c(C)c12
Query block: Would you mind telling me which has the lower recorded IC50 between A and B ? Answer format: the label of the selected item.
Result block: B

* * *

Target: human PAD4 (hPAD4) (Homo sapiens (Human), UniProt Q9UM07)
Test: RFMS Human PAD4 Functional Assay 1
Details: RFMS assay 1; 5 nM hPAD4, 250 μM BAEE substrate, 50 μM calcium, 37° C.
recorded-metric: IC50 (µM)

compound | study-system | IC50 (µM)
Cc1c(-c2cc3ccc(N4CCC(N5CCCC5=O)CC4)nc3n2CC2CC2)nn2cc(C(=O)N3CCC[C@@H](N)C3)cc(F)c12 [Example 273] | human PAD4 (hPAD4) (Homo sapiens (Human), UniProt Q9UM07) | 2.42
COc1cc(C(=O)N2CCC[C@@H](N)C2)cn2nc(-c3cc4cccc(OCCn5cncn5)c4n3CC3CC3)c(C)c12 [Example 555] | human PAD4 (hPAD4) (Homo sapiens (Human), UniProt Q9UM07) | 0.03
Cc1c(-c2cc3cc(F)cc(C4CCN(C(=O)C5CC(O)C5)CC4)c3n2CC2CC2)nn2cc(C(=O)N3CCC[C@@H](N)C3)ccc12 (mixture of isomers) [Example 492] | human PAD4 (hPAD4) (Homo sapiens (Human), UniProt Q9UM07) | 0.13

I. COc1cc(C(=O)N2C[C@H](N)C[C@@H](F)C2)cn2nc(-c3cc4cccnc4n3CC3CC3)c(C)c12 [Example 14]
II. Cc1c(-c2cc3cccc(C4CCN(C(=O)[C@H]5CC[C@H](O)CC5)CC4)c3n2CC2CC2)nn2cc(C(=O)N3C[C@H](N)C[C@@H](F)C3)ccc12 [Example 451]
Query block: # argmax over IC50 for candidates I and II Answer format: the label of the selected item.
Result block: I

* * *

Biological target: human PAD4 (hPAD4) (Homo sapiens (Human))
Assay: RFMS Human PAD4 Functional Assay 1
Settings: RFMS assay 1; 5 nM hPAD4, 250 μM BAEE substrate, 50 μM calcium, 37° C.
recorded-metric: IC50 (nM)

Examples from the recorded data:
item-smiles | study-system | recorded-metric | unit-text | value-measured
COC(=O)N(C)C1CCN(c2ccc3cc(-c4nn5cc(C(=O)N6CCC[C@@H](N)C6)cc(OC)c5c4C)n(CC4CC4)c3c2)CC1 | human PAD4 (hPAD4) (Homo sapiens (Human)) | IC50 | nM | 250
COc1cc(C(=O)N2CCC[C@@H](N)C2)cn2nc(-c3cc4cccc(C5CN(C(=O)[C@H]6CC[C@@H](O)CC6)C5)c4n3CC3CC3)c(C)c12 | human PAD4 (hPAD4) (Homo sapiens (Human)) | IC50 | nM | 220

a. Cc1c(-c2cc3ccc(Cl)nc3n2CC2CC2)nn2cc(C(=O)N3C[C@H](N)C[C@@H](F)C3)cc(Cl)c12
b. Cc1c(-c2cc3ccc(-c4cccc5[nH]ncc45)nc3n2CC2CC2)nn2cc(C(=O)N3C[C@H](N)C[C@@H](F)C3)ccc12
c. COCC(=O)N1CCC(c2cccc3cc(-c4nn5cc(C(=O)N6C[C@H](N)C[C@@H](F)C6)cc(OC)c5c4C)n(CC4CC4)c23)CC1
Query block: Put these in order: smallest IC50 first, largest last. Hello, could you send the labels back in the order asked? Thank you.
Result block: c, b, a

* * *

Target: human PAD4 (hPAD4) (Homo sapiens (Human), UniProt Q9UM07)
Experiment: RFMS Human PAD4 Functional Assay 1
Details: RFMS assay 1; 5 nM hPAD4, 250 μM BAEE substrate, 50 μM calcium, 37° C.
pIC50: −log10 of the molar value.
recorded-metric: pIC50

Examples from the recorded data:
compound | study-system | recorded-metric | value-measured
Cc1c(-c2cc3cc(F)cc(C4CCN(C(=O)C5CC(O)(C(F)(F)F)C5)CC4)c3n2CC2CC2)nn2cc(C(=O)N3CCC[C@@H](N)C3)ccc12 (stereo partly drawn) | human PAD4 (hPAD4) (Homo sapiens (Human), UniProt Q9UM07) | pIC50 | 6.96
COc1cc(C(=O)N2C[C@H](N)C[C@@H](F)C2)cn2nc(-c3cc4ccnc(OCCn5ccnc5)c4n3CC3CC3)c(C)c12 | human PAD4 (hPAD4) (Homo sapiens (Human), UniProt Q9UM07) | pIC50 | 8.00
Cc1c(-c2cc3ccc(-c4ccccc4N4CCNC4=O)cc3n2CC2CC2)nn2cc(C(=O)N3CC4CCC3[C@@H]4N)ccc12 (stereo partly drawn) | human PAD4 (hPAD4) (Homo sapiens (Human), UniProt Q9UM07) | pIC50 | 7.30
COc1cc(C(=O)N2C[C@H](N)C[C@@H](F)C2)cc2oc(-c3cc4cccnc4n3CC3CC3)c(C)c12 | human PAD4 (hPAD4) (Homo sapiens (Human), UniProt Q9UM07) | pIC50 | 6.02
COc1cc(C(=O)N2C[C@H](N)C[C@@H](F)C2)cn2nc(-c3cc4ccc(-c5ccc6[nH]ncc6c5)cc4n3CC3CC3)c(C)c12 | human PAD4 (hPAD4) (Homo sapiens (Human), UniProt Q9UM07) | pIC50 | 6.26

A. COc1cc(C(=O)N2C[C@H](N)C[C@@H](F)C2)cn2nc(-c3cc4ccnc(OCCn5cnnc5)c4n3CC3CC3)c(C)c12
B. COc1cc(C(=O)N2CC3CCC2[C@@H]3N)cn2nc(-c3cc4ccnc(OCC5CNC(=O)C5)c4n3CC3CC3)c(C)c12 (single isomer, unassigned; isomer 2) [Example 606]
C. Cc1c(-c2cc3cccc(OCC4CNC(=O)C4)c3n2CC2CC2)nn2cc(C(=O)N3CCC[C@@H](N)C3)ccc12 (single isomer, unassigned) [Example 588]
D. Cc1c(-c2cc3ccc(N4CCC(N(C)S(C)(=O)=O)CC4)cc3n2CC2CC2)nn2cc(C(=O)N3CCC[C@@H](N)C3)ccc12 [Example 362]
E. Cc1c(-c2cc3ccc(-c4ccc5c(c4)CNC5=O)nc3n2CC2CC2)nn2cc(C(=O)N3CCC[C@@H](N)C3)cc(F)c12
Query block: Arrange by pIC50, high to low. Hello, could you send the labels back in the order asked? Thank you.
Result block: A, B, C, D, E
(A: 7.52, B: 7.30, C: 6.64, D: 6.37, E: 5.73)

1. Cc1c(-c2cc3ccc(-c4ccc(NS(C)(=O)=O)cc4)cc3n2CC2CC2)nn2cc(C(=O)N3C[C@H](N)C[C@@H](F)C3)ccc12
2. CO[C@H](C)C(=O)N1CCC(c2cccc3cc(-c4nn5cc(C(=O)N6C[C@H](N)C[C@@H](F)C6)cc(F)c5c4C)n(CC4CC4)c23)CC1
Query block: Would you mind telling me which has the lower recorded pIC50 between 1 and 2 ? Answer format: the label of the selected item.
Result block: 2
(2: 7.30, 1: 7.70)

* * *

Target: human PAD4 (hPAD4) (Homo sapiens (Human), UniProt Q9UM07)
Assay: RFMS Human PAD4 Functional Assay 1
Settings: RFMS assay 1; 5 nM hPAD4, 250 μM BAEE substrate, 50 μM calcium, 37° C.
pIC50: −log10 of the molar value.
recorded-metric: pIC50

compound | value-measured
COc1cc(C(=O)N2CC3CCC2[C@@H]3N)cc2sc(-c3cc4ccc(N5CCC(OC)CC5)cc4n3CC3CC3)c(C)c12 (stereo partly shown) | 6.84
Cc1c(-c2cc3ccc(C(C)(O)C4CC4)nc3n2CC2CC2)nn2cc(C(=O)N3CC4CCC3[C@@H]4N)cc(F)c12 (stereo partly shown) | 6.70
Cc1ccc2cc(-c3oc4cc(C(=O)N5CC6CCC5[C@@H]6N)ccc4c3C)n(CC3CC3)c2n1 (stereo partly shown) | 7.12
COc1cc(C(=O)N2C[C@H](N)C[C@@H](F)C2)cc2sc(-c3cc4ccc(-c5ccc(C(N)=O)c(F)c5)nc4n3CC3CC3)c(C)c12 | 6.75
COc1cc(C(=O)N2CC3CCC2[C@@H]3N)cc2oc(-c3cc4ccc(-c5ccn6c(C)nnc6c5)cc4n3CC3CC3)c(C)c12 (stereo partly shown) | 7.02
Cc1c(-c2cc3ccc(-c4ccc5c(c4)CNC5=O)nc3n2CC2CC2)nn2cc(C(=O)N3CCC[C@@H](N)C3)ccc12 | 6.29
Cc1c(-c2cc3ccc(-c4ccc(C(N)=O)c(F)c4)cc3n2CC2CC2)oc2cc(C(=O)N3CC4CCC3[C@@H]4N)ccc12 (stereo partly shown) | 7.60
Cc1c(-c2cc3cccc(C4CCN(C(=O)C5CC(O)C5)CC4)c3n2CC2CC2)nn2cc(C(=O)N3CCC[C@@H](N)C3)ccc12 (mixture of isomers) | 6.89

1. Cc1c(-c2cc3cccc(C4CCN(C(=O)[C@H]5CC[C@@H](O)CC5)CC4)c3n2CC2CC2)nn2cc(C(=O)N3C[C@H](N)C[C@@H](F)C3)cc(F)c12
2. COc1cc(C(=O)N2CC3CCC2[C@@H]3N)cn2nc(-c3cc4ccnc(OC[C@H]5CCC(=O)N5)c4n3CC3CC3)c(C)c12 (stereo partly shown)
3. COc1cc(C(=O)N2CC3CCC2[C@@H]3N)cn2nc(-c3cc4ccc(-c5ccn6c(C)nnc6c5)cc4n3CC3CC3)c(C)c12 (stereo partly shown)
4. COc1cc(C(=O)N2C[C@H](N)C[C@@H](F)C2)cn2nc(-c3cc4cccc(C5CCN(C(C)=O)CC5)c4n3CC3CC3)c(C)c12
5. COc1cc(C(=O)N2C[C@H](N)C[C@@H](F)C2)cn2nc(-c3cc4cccc(OCC5CC(=O)N(C)C5)c4n3CC3CC3)c(C)c12 (single isomer, unassigned) [Example 554]
Query block: Put these in order: smallest pIC50 first, largest last. Hello, could you send the labels back in the order asked? Thank you.
Result block: 1, 4, 5, 2, 3
